Recorded measurements of IC50, one per entry
# System: Abeta total
# testDescription: Cellular αLisa assay in SKNBE2 cells, Abeta total
# Format: cell-based, human
# particulars: Homo sapiens, SKNBE2, 18 h, incubated for 18 hours, read-out: Cellular αLisa assay in SKNBE2 cells Abetatotal pIC50 (converted)
Structures can show the parent of a compound that is named as a salt.
measure: IC50 (nM)

[[record]]
compound = "C[C@]1(c2cc(NC(=O)c3ncc(C#N)cc3Cl)ccc2F)N=C(N)CO[C@@H]1F"
measure = "IC50"
unitspec = "nM"
quantitativeresult = 13.8

[[record]]
compound = "N#Cc1cncc(-c2cccc([C@@]3(C4CC4)N=C(N)CO[C@@H]3F)c2)c1"
measure = "IC50"
unitspec = "nM"
quantitativeresult = 1120

[[record]]
compound = "N#Cc1cnc(C(=O)Nc2ccc(F)c([C@@]3(C4CC4)N=C(N)CO[C@@H]3F)c2)c(Cl)c1"
measure = "IC50"
unitspec = "nM"
quantitativeresult = 832

[[record]]
compound = "NC1=N[C@@](c2cc(NC(=O)c3ncc(Cl)cc3F)ccc2F)(C2CC2)[C@@H](F)OC1"
measure = "IC50"
unitspec = "nM"
quantitativeresult = 282

[[record]]
compound = "N#Cc1cnc(C(=O)Nc2cccc([C@@]3(C4CC4)N=C(N)CO[C@@H]3C(F)(F)F)c2)c(Cl)c1"
measure = "IC50"
unitspec = "nM"
quantitativeresult = 17.8

[[record]]
compound = "CC1(c2cc(-c3cncc(C#N)c3)ccc2F)N=C(N)COC1C(F)(F)F (stereo not drawn)"
measure = "IC50"
unitspec = "nM"
quantitativeresult = 224

[[record]]
compound = "CC#Cc1cncc(-c2ccc(F)c([C@@]3(C4CC4)N=C(N)CO[C@H]3F)c2)c1"
measure = "IC50"
unitspec = "nM"
quantitativeresult = 1550

[[record]]
compound = "Cc1cc(Br)cnc1C(=O)Nc1cccc([C@@]2(C3CC3)N=C(N)CO[C@@H]2F)c1"
measure = "IC50"
unitspec = "nM"
quantitativeresult = 13.5

[[record]]
compound = "CC1(c2cccc(-c3ccccc3)c2)COCC(N)=N1 (racemic) [Compound 1, trifluoroacetate salt]"
measure = "IC50"
unitspec = "nM"
quantitativeresult = 1020


----------
# systemUnderTest: recombinant BACE1 protein (Homo sapiens, UniProt P56817)
# Sequence (P56817 46-501): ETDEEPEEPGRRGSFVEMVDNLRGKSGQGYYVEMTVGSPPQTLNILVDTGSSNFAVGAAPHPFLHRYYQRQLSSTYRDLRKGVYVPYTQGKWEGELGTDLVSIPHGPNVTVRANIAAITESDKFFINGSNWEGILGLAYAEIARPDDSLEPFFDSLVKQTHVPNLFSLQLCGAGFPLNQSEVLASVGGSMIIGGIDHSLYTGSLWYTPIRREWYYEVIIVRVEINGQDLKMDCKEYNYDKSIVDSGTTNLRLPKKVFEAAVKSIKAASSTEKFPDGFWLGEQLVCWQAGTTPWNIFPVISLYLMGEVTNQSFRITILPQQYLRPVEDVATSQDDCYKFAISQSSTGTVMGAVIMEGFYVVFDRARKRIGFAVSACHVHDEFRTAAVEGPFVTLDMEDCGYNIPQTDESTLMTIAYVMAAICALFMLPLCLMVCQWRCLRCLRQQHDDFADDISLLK
# testDescription: Biochemical FRET based assay
# particulars: recombinant BACE1 1 μg/ml, 120 minutes at room temperature, pH 5.0; read-out: Biochemical FRET based assay pIC50 (converted)
# From the text: Biochemical FRET Based Assay This assay is a Fluorescence Resonance Energy Transfer Assay (FRET) based assay. […] Upon cleavage by BACE1, the fluorophore Mca is separated from the quenching group Dnp, restoring the full fluorescence yield of the donor. The increase in fluorescence is linearly related to the rate of proteolysis. […]
Assign labels as follows, please: satisfied for IC50 below 300 nM; not satisfied for IC50 equal to or exceeding 300 nM.

[[record]]
molecule = "COc1cncc(-c2cccc(C3(C)N=C(N)COC3F)c2)c1 (single isomer, unassigned) [Compound 88]"
systemundertest = "recombinant BACE1 protein (Homo sapiens, UniProt P56817)"
assignedclass = "not satisfied"

[[record]]
molecule = "C[C@]1(c2cc(-c3cncnc3)c(F)cc2F)COC2(CC2)C(N)=N1"
systemundertest = "recombinant BACE1 protein (Homo sapiens, UniProt P56817)"
assignedclass = "not satisfied"

[[record]]
molecule = "N#Cc1ccc(C(=O)Nc2ccc(F)c([C@@]3(C4CC4)N=C(N)CO[C@@]3(F)C(F)(F)F)c2)nc1"
systemundertest = "recombinant BACE1 protein (Homo sapiens, UniProt P56817)"
assignedclass = "satisfied"

[[record]]
molecule = "COc1cncc(-c2cccc(C3(C)N=C(N)COC3C(F)(F)F)c2)c1 (stereo not shown) [Compound 108]"
systemundertest = "recombinant BACE1 protein (Homo sapiens, UniProt P56817)"
assignedclass = "not satisfied"

[[record]]
molecule = "Cc1cc(Br)cnc1C(=O)Nc1ccc(F)c([C@@]2(C3CC3)N=C(N)CO[C@@H]2F)c1"
systemundertest = "recombinant BACE1 protein (Homo sapiens, UniProt P56817)"
assignedclass = "satisfied"

[[record]]
molecule = "C[C@]1(c2cccc(NC(=O)c3ccc(C#N)cn3)c2)N=C(N)CO[C@@]1(F)C(F)(F)F"
systemundertest = "recombinant BACE1 protein (Homo sapiens, UniProt P56817)"
assignedclass = "not satisfied"

[[record]]
molecule = "COc1cncc(-c2cccc(C3(C(F)(F)F)COCC(N)=N3)c2)c1 (racemic)"
systemundertest = "recombinant BACE1 protein (Homo sapiens, UniProt P56817)"
assignedclass = "not satisfied"

[[record]]
molecule = "C[C@@]1(c2cccc(NC(=O)c3ccc(Cl)cn3)c2)N=C(N)CO[C@H]1F (single isomer, unassigned)"
systemundertest = "recombinant BACE1 protein (Homo sapiens, UniProt P56817)"
assignedclass = "not satisfied"

[[record]]
molecule = "NC1=N[C@@](c2cccc(NC(=O)c3ncc(Cl)cc3F)c2)(C2CC2)[C@@H](C(F)(F)F)OC1"
systemundertest = "recombinant BACE1 protein (Homo sapiens, UniProt P56817)"
assignedclass = "satisfied"

[[record]]
molecule = "CC1(c2cc(NC(=O)c3ncc(Cl)cc3Cl)ccc2F)N=C(N)COC1F (single isomer, unassigned) [Compound 126]"
systemundertest = "recombinant BACE1 protein (Homo sapiens, UniProt P56817)"
assignedclass = "satisfied"


----------
Recorded measurements of Biochemical FRET based assay pIC50, one per entry
# systemUnderTest: recombinant BACE1 protein (Homo sapiens, UniProt P56817)
# testDescription: Biochemical FRET based assay
# particulars: recombinant BACE1 1 μg/ml, 120 minutes at room temperature, pH 5.0
measure: Biochemical FRET based assay pIC50

[[record]]
compound = "CC1(c2cc(NC(=O)c3ccncn3)ccc2F)COCC(N)=N1 (stereo not drawn)"
quantitativeresult = 6.18

[[record]]
compound = "C[C@@]1(c2cccc(-c3cc(Cl)cc(Cl)c3)c2)COCC(N)=N1"
quantitativeresult = 6.06

[[record]]
compound = "CC1(c2cc(NC(=O)c3ccc(Cl)s3)ccc2F)COCC(N)=N1 (stereo not drawn)"
quantitativeresult = 6.11


----------
# systemUnderTest: recombinant BACE1 protein (Homo sapiens, UniProt P56817)
# testDescription: Biochemical FRET based assay
# particulars: recombinant BACE1 1 μg/ml, 120 minutes at room temperature, pH 5.0; read-out: Biochemical FRET based assay pIC50 (converted)
Assign labels as follows, please: Satisfied for IC50 below 2 µM; Not satisfied for IC50 equal to or exceeding 2 µM.

[[record]]
molecule = "COc1cncc(-c2cccc(C3(C)N=C(N)COC3C(F)(F)F)c2)c1 (single isomer, unassigned) [Compound 102]"
assignedclass = "Not satisfied"

[[record]]
molecule = "CC1(c2cc(-c3cncnc3)ccc2F)N=C(N)COC1C(F)(F)F (single isomer, unassigned) [Compound 106]"
assignedclass = "Not satisfied"

[[record]]
molecule = "NC1=NC(c2cccc(NC(=O)c3ccc(Cl)cn3)c2)(C2CC2)COC1 (single isomer, unassigned) [Compound 196]"
assignedclass = "Not satisfied"

[[record]]
molecule = "CCC1(c2cc(NC(=O)c3cnc(OC)cn3)ccc2F)N=C(N)COC1(F)C(F)(F)F (centres unmarked) [Compound 300]"
assignedclass = "Satisfied"

[[record]]
molecule = "CCC1(c2cc(NC(=O)c3cnc(OC)cn3)ccc2F)N=C(N)COC1C(F)(F)F (centres unmarked)"
assignedclass = "Satisfied"

[[record]]
molecule = "C[C@]1(c2cc(-c3cncnc3)c(F)cc2F)N=C(N)CO[C@@H]1F (single isomer, unassigned)"
assignedclass = "Not satisfied"

[[record]]
molecule = "C[C@]1(c2cccc(NC(=O)c3ccc(Cl)cn3)c2)N=C(N)CO[C@@H]1F (single isomer, unassigned)"
assignedclass = "Satisfied"

[[record]]
molecule = "NC1=N[C@@](c2cc(NC(=O)c3ncc(Cl)cc3Cl)ccc2F)(C2CC2)[C@@H](F)OC1"
assignedclass = "Satisfied"

[[record]]
molecule = "NC1=N[C@@](c2cc(NC(=O)c3ncc(Cl)cc3F)ccc2F)(C2CC2)[C@@H](F)OC1"
assignedclass = "Satisfied"

[[record]]
molecule = "COc1cncc(-c2cccc(C3(C)N=C(N)COC3C(F)(F)F)c2)c1 (single isomer, unassigned) [Compound 104]"
assignedclass = "Not satisfied"

[[record]]
molecule = "N#Cc1cncc(-c2ccc(F)c([C@@]3(C4CC4)N=C(N)CO[C@H]3F)c2)c1"
assignedclass = "Not satisfied"

[[record]]
molecule = "CC1(c2cccc(NC(=O)c3ccc(Cl)cn3)c2)COC(F)(C(F)(F)F)C(N)=N1 (racemic) [Compound 9]"
assignedclass = "Not satisfied"

[[record]]
molecule = "CC1(c2cc(NC(=O)c3ncc(Cl)cc3F)ccc2F)N=C(N)COC1F (single isomer, unassigned) [Compound 130]"
assignedclass = "Satisfied"

[[record]]
molecule = "CC1(c2cccc(-c3cncnc3)c2)N=C(N)COC1(F)C(F)(F)F (single isomer, unassigned) [Compound 139]"
assignedclass = "Not satisfied"

[[record]]
molecule = "NC1=N[C@@](c2cccc(NC(=O)c3cnc(OCC(F)(F)F)cn3)c2)(C2CC2)[C@H](F)OC1"
assignedclass = "Satisfied"

[[record]]
molecule = "COc1cncc(-c2cccc(C3(C)N=C(N)COC3(F)C(F)(F)F)c2)c1 (single isomer, unassigned) [Compound 142]"
assignedclass = "Not satisfied"

[[record]]
molecule = "CC1(c2cc(-c3cncnc3)ccc2F)N=C(N)COC1F (single isomer, unassigned) [Compound 75]"
assignedclass = "Not satisfied"

[[record]]
molecule = "C[C@]1(c2cc(NC(=O)c3ccc(C#N)cn3)ccc2F)N=C(N)CO[C@H]1C(F)(F)F"
assignedclass = "Satisfied"

[[record]]
molecule = "CC1(c2cccc(-c3cc(Cl)cc(Cl)c3)c2)COCC(N)=N1 (racemic)"
assignedclass = "Satisfied"

[[record]]
molecule = "CC1(c2cccc(NC(=O)c3ncccc3F)c2)COCC(N)=N1 (racemic)"
assignedclass = "Not satisfied"

[[record]]
molecule = "CCC1(c2cc(NC(=O)c3ncc(C#N)cc3Cl)ccc2F)N=C(N)COC1C(F)(F)F (centres unmarked)"
assignedclass = "Satisfied"

